- SYSTEM: Recombinant (1-346) HPK1 (h) (Homo sapiens, UniProt Q92918)
- Construct: Recombinant (1-346) HPK1 (h) is incubated with 8 mM MOPS pH 7.0
- Sequence (Q92918 1-346): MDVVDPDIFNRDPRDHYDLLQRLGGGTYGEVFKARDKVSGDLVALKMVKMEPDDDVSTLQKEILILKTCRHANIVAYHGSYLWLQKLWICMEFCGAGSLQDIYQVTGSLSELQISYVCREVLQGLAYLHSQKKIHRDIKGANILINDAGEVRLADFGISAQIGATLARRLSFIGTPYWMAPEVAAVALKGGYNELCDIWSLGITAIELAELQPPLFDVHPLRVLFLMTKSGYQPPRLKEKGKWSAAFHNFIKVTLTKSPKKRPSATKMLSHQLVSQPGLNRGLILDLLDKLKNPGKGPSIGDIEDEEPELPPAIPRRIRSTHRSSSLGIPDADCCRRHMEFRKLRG
- MEASUREMENT NOTES: HPK1 human STE kinase enzymatic radiometric assay
- Type: biochemical
- CONDITION LABEL: read-out: HPK1 IC50 nM Range

{"COMPOUND": "COCCN(C)Cc1cc(-c2nc(-c3cc4c(cc3F)C(=O)NCC4)c(N)nc2F)ccc1C1CCOCC1 [Example I-175]", "IC50": "0.1 to 10 nM"}
{"COMPOUND": "Nc1nc(F)c(-c2ccc(N3CCN(CC4CC4)CC3)cc2)nc1-c1cc2cc[nH]c(=O)c2cc1F [Example I-25]", "IC50": "0.1 to 10 nM"}
{"COMPOUND": "Nc1nc(F)c(-c2ccc(N3CCN(C4COC4)CC3)cc2)nc1-c1cc2c(cc1F)C(=O)NCC2 [Example I-45]", "IC50": "11 to 100 nM"}
{"COMPOUND": "CN(C)[C@@H]1COc2ccc(-c3nc(-c4ccc5c(=O)[nH]cc(Cl)c5c4)c(N)nc3F)cc21 [Example I-252]", "IC50": "0.1 to 10 nM"}
{"COMPOUND": "Cc1c[nH]c(=O)c2ccc(-c3nc(-c4ccc5c(c4)[C@H](N(C)C)CCO5)c(F)nc3N)cc12 [Example I-285]", "IC50": "0.1 to 10 nM"}
{"COMPOUND": "COC1CCN(Cc2cc(-c3nc(-c4cc5c(cc4F)C(=O)NCC5)c(N)nc3F)ccc2C2CCOCC2)CC1 [Example I-132]", "IC50": "11 to 100 nM"}
{"COMPOUND": "C[C@H]1CCCN1Cc1cc(-c2nc(-c3ccc4c(c3)C(F)(F)CNC4=O)c(N)nc2F)ccc1C1CCOCC1 [Example I-233]", "IC50": "0.1 to 10 nM"}
